- Measured target: human 12R-LOX enzyme (Homo sapiens)
- Construct: Coding region of the cDNA was amplified from the basic vector pCMV6Neo-12R-LOX (OriGene, USA) and was ligated into pET28(b); His-tag (N); made in house; host or cells: E. coli BL21 Rossetta DE3
- Assay procedure: Screening of compounds against 12R-LOX in isolated enzyme systems
- Format: biochemical
- Cond: 12R-LOX inhibitory activities in vitro; 100 μM concentration; read-out: % Inhibition (at 100 μM)
Readout label: inhibition at 100 µM (%)

As a guide, the following entries are already answered.
Nc1ccc(O)cc1-c1cc(=O)c2ccc(Br)cc2o1    53.5
Nc1ccc(O)cc1-c1cc(=O)c2cc(O)ccc2o1    38.3
O=c1cc(-c2cc(O)ccc2NS(=O)(=O)c2ccc([N+](=O)[O-])cc2)oc2ccccc12    6.33

I = Nc1ccc(O)cc1-c1cc(=O)c2ccc(F)cc2o1
II = Nc1cc(I)c(O)cc1-c1cc(=O)c2ccccc2o1
IN: Between item I and item II , which reported inhibition at 100 µM is smaller? The response must carry the label of the picked entry.
OUT: I
(I: 21%, II: 51%)

* * *

- Measured target: human 12R-LOX enzyme (Homo sapiens)
- Construct: Coding region of the cDNA was amplified from the basic vector pCMV6Neo-12R-LOX (OriGene, USA) and was ligated into pET28(b); His-tag (N); made in house; host or cells: E. coli BL21 Rossetta DE3
- Assay procedure: Screening of compounds against 12R-LOX in isolated enzyme systems
- Assay type: biochemical
- Cond: 12R-LOX inhibitory activities in vitro
Readout label: IC50 (µM)

Nc1cc(I)c(O)cc1-c1cc(=O)c2ccccc2o1    97

1 = Nc1ccc(O)cc1-c1cc(=O)c2ccc(Br)cc2o1
2 = Nc1ccc(O)cc1-c1cc(=O)c2ccccc2o1
IN: Form field 'greater IC50' accepts 1 or 2 ; which applies? The response must carry the label of the picked entry.
OUT: 2

* * *

# melting point listing for each entry below

Nc1ccc(O)cc1-c1cc(=O)c2ccc(F)cc2o1    200 to 202 °C
Nc1ccc(O)cc1-c1cc(=O)c2cc(O)ccc2o1    130 to 132 °C
C#CCOc1ccc(NC(=O)c2ccccc2)c(-c2cc(=O)c3ccccc3o2)c1    154 to 156 °C
O=c1cc(-c2cc(O)ccc2NS(=O)(=O)c2ccc(C(F)(F)F)cc2)oc2ccccc12    160 to 162 °C
Nc1ccc(O)cc1-c1cc(=O)c2ccccc2o1    202 to 204 °C
C#CCOc1ccc(N)c(-c2cc(=O)c3ccccc3o2)c1    153 to 155 °C
CCOc1ccc(N)c(-c2cc(=O)c3ccccc3o2)c1    88 to 90 °C
O=C(Nc1ccc(O)cc1-c1cc(=O)c2ccccc2o1)c1ccccc1    > 200 °C
O=c1cc(-c2cc(O)ccc2NS(=O)(=O)c2ccccc2)oc2ccccc12    > 200 °C
Nc1ccc(O)cc1-c1cc(=O)c2ccc(Br)cc2o1    > 200 °C

IN: Item Nc1ccc(O)cc1-c1cc(=O)c2cc(Br)ccc2o1 : provide melting point
OUT: > 200 °C

IN: Item COc1ccc(N)c(-c2cc(=O)c3ccccc3o2)c1 : provide melting point
OUT: 118 to 120 °C

IN: Item O=c1cc(-c2cc(O)ccc2NS(=O)(=O)c2ccc([N+](=O)[O-])cc2)oc2ccccc12 : provide melting point
OUT: > 200 °C

IN: Item C#CCOc1ccc(NS(=O)(=O)c2ccccc2)c(-c2cc(=O)c3ccccc3o2)c1 : provide melting point
OUT: 152 to 154 °C

* * *

- Measured target: human 12R-LOX enzyme (Homo sapiens, UniProt O75342)
- Construct: Coding region of the cDNA was amplified from the basic vector pCMV6Neo-12R-LOX (OriGene, USA) and was ligated into pET28(b); His-tag (N); made in house; host or cells: E. coli BL21 Rossetta DE3
- Sequence (O75342 1-701): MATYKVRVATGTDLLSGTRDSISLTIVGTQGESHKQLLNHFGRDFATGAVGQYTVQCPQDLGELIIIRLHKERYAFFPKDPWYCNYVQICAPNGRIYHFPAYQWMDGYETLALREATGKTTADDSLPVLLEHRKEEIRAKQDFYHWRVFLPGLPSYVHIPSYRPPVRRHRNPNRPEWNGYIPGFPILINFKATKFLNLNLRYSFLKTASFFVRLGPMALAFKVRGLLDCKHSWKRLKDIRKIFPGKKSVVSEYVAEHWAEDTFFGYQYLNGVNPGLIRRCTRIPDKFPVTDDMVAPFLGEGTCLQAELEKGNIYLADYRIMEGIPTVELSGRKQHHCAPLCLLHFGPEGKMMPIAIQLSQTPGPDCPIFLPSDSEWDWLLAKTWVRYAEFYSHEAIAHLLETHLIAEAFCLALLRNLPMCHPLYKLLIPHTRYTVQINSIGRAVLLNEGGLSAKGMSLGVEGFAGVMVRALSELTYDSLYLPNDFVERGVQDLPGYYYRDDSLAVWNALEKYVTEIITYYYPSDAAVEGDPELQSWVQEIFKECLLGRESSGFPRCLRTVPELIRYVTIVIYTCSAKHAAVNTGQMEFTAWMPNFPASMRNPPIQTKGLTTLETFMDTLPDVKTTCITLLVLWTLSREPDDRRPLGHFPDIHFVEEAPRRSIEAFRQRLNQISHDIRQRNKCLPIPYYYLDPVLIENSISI
- Assay procedure: Screening of compounds against 12R-LOX in isolated enzyme systems
- Format: biochemical
- Cond: 12R-LOX inhibitory activities in vitro; 100 μM concentration; read-out: % Inhibition (at 100 μM)
Readout label: inhibition at 100 µM (%)

As a guide, the following entries are already answered.
CS(=O)(=O)Nc1ccc(OS(C)(=O)=O)cc1-c1cc(=O)c2ccccc2o1    56
O=c1cc(-c2cc(O)ccc2NS(=O)(=O)c2ccc(C(F)(F)F)cc2)oc2ccccc12    30

A = Nc1ccc(O)cc1-c1cc(=O)c2ccccc2o1
B = Nc1ccc(O)cc1-c1cc(=O)c2cc(Br)ccc2o1
IN: Form field 'greater inhibition at 100 µM' accepts A or B ; which applies? The response must carry the label of the picked entry.
OUT: A
